Assay Name: Cytotoxicity assay (LDH release), hRPTEC
Assay type: cell-based, human
Conditions Used: human
Bridge positions count the residues as written; N and C are the ends. Square brackets hold non-standard residues; d marks the D form. Peptide text beside a SMILES is read from it. * marks the point of attachment. X22 = COc1cccc(-c2cc(C(=O)*)ccn2)c1; X12 = O=C(c1cccc(-c2ccccc2F)c1)*; X23 = O=C(c1cnnc(-c2ccccc2)c1)*; Dab = NCC[C@H](N)C(=O)O; Dap = NC[C@H](N)C(=O)O
Readout Kind: CC50 at 24 h
I'd appreciate it if you wrote the number followed by its unit.

Use the examples below as a reference point.
COc1cccc(-c2cc(C(=O)N[C@@H](CCN)C(=O)N[C@H](C(=O)N[C@@H](CN)C(=O)N[C@H]3CCNC(=O)[C@H]([C@@H](C)O)NC(=O)[C@H](CCN)NC(=O)[C@H](CCN)NC(=O)[C@H](CC(C)C)NC(=O)[C@@H](Cc4ccccc4)NC(=O)[C@H](CCN)NC3=O)[C@@H](C)O)ccn2)c1 [Example 29] (X22-[Dab]T[Dap][Dab][Dab][dF]L[Dab][Dab]T; lactam 4-C); 70 µM
CC(C)C[C@@H]1NC(=O)[C@@H](Cc2ccccc2)NC(=O)[C@H](CCN)NC(=O)[C@@H](NC(=O)[C@H](CN)NC(=O)[C@@H](NC(=O)[C@H](CCN)NC(=O)c2cnnc(-c3ccccc3)c2)[C@@H](C)O)CCNC(=O)[C@H]([C@@H](C)O)NC(=O)[C@H](CCN)NC(=O)[C@H](CCN)NC1=O [Example 11] (X23-[Dab]T[Dap][Dab][Dab][dF]L[Dab][Dab]T; lactam 4-C); 84 µM

Proceed to the following item.
The molecule listed as CC(C)C[C@@H]1NC(=O)[C@@H](Cc2ccccc2)NC(=O)[C@H](CCN)NC(=O)[C@@H](NC(=O)[C@H](CN)NC(=O)[C@@H](NC(=O)[C@H](CCN)NC(=O)c2cccc(-c3ccccc3F)c2)[C@@H](C)O)CCNC(=O)[C@H]([C@@H](C)O)NC(=O)[C@H](CCN)NC(=O)[C@H](CCN)NC1=O [Example 9] (X12-[Dab]T[Dap][Dab][Dab][dF]L[Dab][Dab]T; lactam 4-C) shows CC50 at 24 h equal to 24 µM
